Target Under Test: GST-Nv-NF-kB (Cys allele) (Nematostella vectensis, UniProt E5G601 2-411)
Sequence: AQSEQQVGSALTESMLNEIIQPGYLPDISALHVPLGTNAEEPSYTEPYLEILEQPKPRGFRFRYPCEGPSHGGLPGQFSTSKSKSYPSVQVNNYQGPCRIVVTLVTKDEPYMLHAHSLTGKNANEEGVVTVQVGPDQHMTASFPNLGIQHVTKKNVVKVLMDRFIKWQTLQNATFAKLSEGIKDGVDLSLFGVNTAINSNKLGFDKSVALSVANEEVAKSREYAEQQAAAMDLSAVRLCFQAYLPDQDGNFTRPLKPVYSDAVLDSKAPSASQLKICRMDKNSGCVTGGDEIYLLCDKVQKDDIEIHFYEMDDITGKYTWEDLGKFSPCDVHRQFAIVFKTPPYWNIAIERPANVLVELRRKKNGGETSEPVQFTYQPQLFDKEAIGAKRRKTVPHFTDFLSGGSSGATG
Assay Text: protein-binding microarray (PBM); PBM: ~300 nM protein, 6 mM HEPES pH 7.8, 80 mM KCl, 0.5 mM EDTA, 0.5 mM EGTA, 6% glycerol, 35 ng/ul poly-dIdC, 1% milk, 1 h, room temperature; Ap Aiptasia and Nv Nematostella (sea anemones) / Co Capsaspora / Aq Amphimedon (sponge) / Dm Drosophila / Hu human; RHD is the Rel homology domain; high values mean tight binding
Conditions Used: dsDNA, one strand shown
Tick Fulfilled if binding signal is 6 z-score or greater. Tick Not fulfilled if binding signal is less than 6 z-score.

>>> group_label("CCGATTAACATCAAATAAGTCCCTGATGTTAATCGGGTCTTGATTCGCTTGACGCTGCTG")
"Fulfilled"
>>> group_label("CCGATTAACATCAGGACATACCCTGATGTTAATCGGGTCTTGATTCGCTTGACGCTGCTG")
"Not fulfilled"
>>> group_label("CCGATTAACATCAGTTTCCCAAATGATGTTAATCGGGTCTTGATTCGCTTGACGCTGCTG")
"Not fulfilled"
>>> group_label("CCGATTAACATCAAGGGGACTTCTGATGTTAATCGGGTCTTGATTCGCTTGACGCTGCTG")
"Fulfilled"
>>> group_label("CCGATTAACATCAGGACTTTACCTGATGTTAATCGGGTCTTGATTCGCTTGACGCTGCTG")
"Not fulfilled"
>>> group_label("CCGATTAACATCAAGCACCCCCTTGATGTTAATCGGGTCTTGATTCGCTTGACGCTGCTG")
"Not fulfilled"
>>> group_label("CCGATTAACATCAGGGGGGATTATGATGTTAATCGGGTCTTGATTCGCTTGACGCTGCTG")
"Fulfilled"
>>> group_label("CCGATTAACATCAATAAATCCCCTGATGTTAATCGGGTCTTGATTCGCTTGACGCTGCTG")
"Fulfilled"
>>> group_label("CCGATTAACATCACGATTTTCCCTGATGTTAATCGGGTCTTGATTCGCTTGACGCTGCTG")
"Not fulfilled"
>>> group_label("CCGATTAACATCAAAAAAGTCCGTGATGTTAATCGGGTCTTGATTCGCTTGACGCTGCTG")
"Not fulfilled"
>>> group_label("CCGATTAACATCAGGGAACCCCATGATGTTAATCGGGTCTTGATTCGCTTGACGCTGCTG")
"Not fulfilled"
>>> group_label("CCGATTAACATCAATTTTCCCCGTGATGTTAATCGGGTCTTGATTCGCTTGACGCTGCTG")
"Fulfilled"
>>> group_label("CCGATTAACATCAGGGGGGATAATGATGTTAATCGGGTCTTGATTCGCTTGACGCTGCTG")
"Not fulfilled"
>>> group_label("CCGATTAACATCAAAAAATGCCCTGATGTTAATCGGGTCTTGATTCGCTTGACGCTGCTG")
"Not fulfilled"
>>> group_label("CCGATTAACATCAGGGAAAACGATGATGTTAATCGGGTCTTGATTCGCTTGACGCTGCTG")
"Not fulfilled"
>>> group_label("CCGATTAACATCACATGTTTCCCTGATGTTAATCGGGTCTTGATTCGCTTGACGCTGCTG")
"Not fulfilled"
>>> group_label("CCGATTAACATCAGGGGAAGTCATGATGTTAATCGGGTCTTGATTCGCTTGACGCTGCTG")
"Fulfilled"
>>> group_label("CCGATTAACATCACATATCCCCCTGATGTTAATCGGGTCTTGATTCGCTTGACGCTGCTG")
"Not fulfilled"
>>> group_label("CCGATTAACATCAGGTAATTCCATGATGTTAATCGGGTCTTGATTCGCTTGACGCTGCTG")
"Not fulfilled"
>>> group_label("CCGATTAACATCAGGGATTCCAATGATGTTAATCGGGTCTTGATTCGCTTGACGCTGCTG")
"Not fulfilled"
>>> group_label("CCGATTAACATCAGGGCCTTTTGTGATGTTAATCGGGTCTTGATTCGCTTGACGCTGCTG")
"Not fulfilled"
>>> group_label("CCGATTAACATCAGGGGGTATACTGATGTTAATCGGGTCTTGATTCGCTTGACGCTGCTG")
"Not fulfilled"
>>> group_label("CCGATTAACATCACACCCCCCCGTGATGTTAATCGGGTCTTGATTCGCTTGACGCTGCTG")
"Not fulfilled"
>>> group_label("CCGATTAACATCAAGGGAAAAATTGATGTTAATCGGGTCTTGATTCGCTTGACGCTGCTG")
"Fulfilled"
>>> group_label("CCGATTAACATCAGGCGAGTCCCTGATGTTAATCGGGTCTTGATTCGCTTGACGCTGCTG")
"Not fulfilled"
>>> group_label("CCGATTAACATCAGGGGGTTATATGATGTTAATCGGGTCTTGATTCGCTTGACGCTGCTG")
"Not fulfilled"
>>> group_label("CCGATTAACATCAGGACTTTCCCTGATGTTAATCGGGTCTTGATTCGCTTGACGCTGCTG")
"Fulfilled"
>>> group_label("CCGATTAACATCAATTCTCCCCCTGATGTTAATCGGGTCTTGATTCGCTTGACGCTGCTG")
"Fulfilled"
>>> group_label("CCGATTAACATCAGGGGACTCACTGATGTTAATCGGGTCTTGATTCGCTTGACGCTGCTG")
"Not fulfilled"
